- System: 699152-130-R-J1-PDC complex spheroid viability;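 note: spheroids exposed to agents for 7 days before viability reading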
- ASSAY SUMMARY: Anticancer human tumor 699152-130-R-J1-PDC patient-derived pancreatic carcinoma cell line growth inhibition [POLQ]; active = viability on the fitted dose curve at most 10% of control; inactive = the rest
- PARTICULARS: second compound 10 µM; first compound 10 µM
Classes used: active, inactive

1. COc1cccc2c1C(=O)c1c(O)c3c(c(O)c1C2=O)CC(O)(C(=O)CO)CC3OC1CC(N)C(O)C(C)O1 (configuration not stated) + Cc1cccc(N(C)C(=O)C2C(O)CCN2c2nc(C)cc(C(F)(F)F)c2C#N)c1 | active
2. COc1ccc([C@@H](O)c2cc(-c3ncnc4cc(N5CCOCC5)ccc34)c(F)cc2Cl)nn1 + Cc1cccc(N(C)C(=O)C2C(O)CCN2c2nc(C)cc(C(F)(F)F)c2C#N)c1 | inactive
3. O=c1[nH]cc(F)c(=O)[nH]1 + Nc1ccc(C#CCN(C(=O)Cc2ncc(C(F)(F)F)cc2C(F)(F)F)c2ccc(F)cc2)nn1 | inactive
4. CC1COCCN1c1cc(-c2ccnn2C)c2ccnc(-c3ccn[nH]3)c2n1 (configuration not stated) + Cc1cccc(N(C)C(=O)C2C(O)CCN2c2nc(C)cc(C(F)(F)F)c2C#N)c1 | inactive
5. CC1COCCN1c1cc(C2(O)CC3CCC(C2)O3)c2cnn(-c3ccn[nH]3)c2n1 (configuration not stated) + Cc1cccc(N(C)C(=O)C2C(O)CCN2c2nc(C)cc(C(F)(F)F)c2C#N)c1 | inactive
6. CCc1cc2c(N3CCc4c(cc(Cn5ccnc5)cc4-c4cn(C)nc4C(F)(F)F)C3=O)ccnc2c(OC)n1 + COC1C(OC(N)=O)C(O)C(Oc2ccc3c(O)c(NC(=O)c4ccc(O)c(CC=C(C)C)c4)c(=O)oc3c2C)OC1(C)C | inactive
7. CCCS(=O)(=O)Nc1ccc(F)c(C(=O)c2c[nH]c3ncc(-c4ccc(Cl)cc4)cc23)c1F + Cc1cccc(N(C)C(=O)C2C(O)CCN2c2nc(C)cc(C(F)(F)F)c2C#N)c1 | inactive
